Consider the following molecules and their measured pIC50 readings.
tested on: SK-N-SH neuroblastoma cells; assay: Cytotoxicity assay, MTS viability; assay type: cell-based; conditions: Homo sapiens, 72 hours
The value called pIC50 is obtained by taking minus log10 of the concentration in mol/L.

Asked: Note down pIC50 recorded for CCC(C)c1ccc(NC(=O)c2ccn(S(=O)(=O)c3ccc4[nH]cc(C)c4c3)c2)cc1 (stereo not shown)
Given back: 4.85

Asked: Supply reported pIC50 belonging to this molecule: "CC(C)c1ccc(NC(=O)c2ccn(S(=O)(=O)c3ccc4[nH]ccc4c3)n2)cc1"
Given back: 5.21

Asked: Supply reported pIC50 belonging to this molecule: "CCCc1ccc(NC(=O)c2ccn(S(=O)(=O)c3ccc4[nH]ccc4c3)n2)cc1"
Given back: 4.96

Asked: Please report pIC50 for the following molecule: "Cc1ccc(NC(=O)c2ccn(S(=O)(=O)c3ccc4[nH]ccc4c3)c2)cc1"
Given back: 4.76

----------
system: A549 (NSCLC) cells; assay: Anti-proliferative activity, Cell-Titre luminescent viability assay; assay type: cell-based; conditions: Homo sapiens, 72 h exposure, Cell-Titre luminescent reagent
Classify: 1 when IC50 is strictly less than 10 µM; -1 when IC50 is not.

- compound: "O=C(Nc1ccc(Cl)cn1)c1ccn(S(=O)(=O)c2ccc3[nH]ccc3c2)n1"
  labelClass: -1
- compound: "CC(C)(C)c1ccc(NC(=O)c2ccn(S(=O)(=O)c3ccc4[nH]ccc4c3)c2)cc1"
  labelClass: -1

Asked: Is it true that IC50 reported for "Cn1cc(S(=O)(=O)N2CCC(C(=O)Nc3ccccc3)CC2)cc1C(N)=O" is less than 10 µM?
Given back: -1

Asked: Does CCC(C)c1ccc(NC(=O)C2CCN(S(=O)(=O)c3ccc4[nH]ccc4c3)CC2)cc1 (centres unmarked) have IC50 strictly under 10 µM?
Given back: -1

----------
test system: SK-N-SH neuroblastoma cells; assay: Cytotoxicity assay, MTS viability; format: cell-based; conditions: Homo sapiens, 72 hours
Listing of entries alongside the reported pIC50.
// pIC50: -log10(molar conc.)

Worked examples follow.
- compound: "CCC(C)c1ccc(NC(=O)c2ccn(S(=O)(=O)c3ccc4c(c3)CCN4)c2)cc1 (stereo not shown)"
  assayResult: 4.57
- compound: "CCC(C)c1ccc(CCC2CCN(S(=O)(=O)c3cc(C(N)=O)n(C)c3)CC2)cc1 (stereo not shown)"
  assayResult: 4.33

Asked: Consider the compound "CC(C)(C)c1ccc(S(=O)(=O)n2ccc(C(=O)Nc3ccc(F)cc3)c2)cc1" tested on SK-N-SH neuroblastoma cells; state its pIC50.
Given back: 4.78

Asked: Give the observed pIC50 of "O=C(Nc1ccc(C(F)(F)F)cc1)c1ccn(S(=O)(=O)c2ccc3[nH]ccc3c2)n1" for SK-N-SH neuroblastoma cells.
Given back: 4.67

Asked: Report pIC50 under test system SK-N-SH neuroblastoma cells for "CC(C)c1cccc(NC(=O)c2ccn(S(=O)(=O)c3ccc4[nH]ccc4c3)c2)c1" .
Given back: 4.92

Asked: Answer with pIC50 of CCC(C)c1ccc(NC(=O)c2ccn(S(=O)(=O)c3ccc4[nH]ccc4c3)c2)cc1 (stereo not shown) measured for SK-N-SH neuroblastoma cells.
Given back: 5.13

----------
system: A549 (NSCLC) cells; experiment: Anti-proliferative activity, Cell-Titre luminescent viability assay; type: cell-based; conditions: Homo sapiens, 72 h exposure, Cell-Titre luminescent reagent
// reported pIC50 for each item listed
As a rule, pIC50 stands for the negative log10 of the concentration, concentration in M.

Worked examples follow.
- compound: "CCC(C)c1ccc(NC(=O)N2CCN(S(=O)(=O)c3ccc4[nH]ccc4c3)CC2)cc1 (centres unmarked)"
  pIC50: 4.59
- compound: "CC(C)Cc1ccc(NC(=O)c2ccn(S(=O)(=O)c3ccc4[nH]ccc4c3)c2)cc1F"
  pIC50: 5.13
- compound: "O=C(Nc1ccc(F)c(Cl)c1)c1ccn(S(=O)(=O)c2ccc3[nH]ccc3c2)c1"
  pIC50: 4.86
- compound: "Cc1cccc(C)c1NC(=O)c1ccn(S(=O)(=O)c2ccc3[nH]ccc3c2)c1"
  pIC50: 4.75

Asked: Specify pIC50 for "Cc1ccccc1NC(=O)c1ccn(S(=O)(=O)c2ccc3[nH]ccc3c2)c1" and stop.
Given back: 5.28

Asked: Assign pIC50 to the following record: CCC(C)c1ccc(NC(=O)c2ccn(S(=O)(=O)c3ccc4c(c3)CCN4)c2)cc1 (centres unmarked)
Given back: 4.43

Asked: Please give measured pIC50 of the following entry: "CC(C)c1ccc(NC(=O)c2ccn(S(=O)(=O)c3ccc4[nH]ccc4c3)c2)cc1F"
Given back: 5.11

Asked: Dear colleague, please send me the reported pIC50 for "O=C(Nc1cccc(F)c1)c1ccn(S(=O)(=O)c2ccc3[nH]ccc3c2)c1" when you can.
Given back: 5.20

Asked: Assign pIC50 to the following record: "Cc1ccc(NC(=O)N2CCN(S(=O)(=O)c3ccc4[nH]ccc4c3)CC2)cc1O"
Given back: 4.76

Asked: Return pIC50 (reported value) for this compound: "O=C(Nc1ccc(Cl)c(F)c1)c1ccn(S(=O)(=O)c2ccc3[nH]ccc3c2)c1"
Given back: 4.88

Origin of the recorded values: patent US12528792B2
